# subjectOfTest: UniProtKB Q72547
Cut-off 9 µM on IC50: below means t, at or above means f.

Reference set, count: 4
>>> assignedlabel("N#Cc1cccc(Cn2cccc2/C=C/C(=O)CC(=O)C(=O)O)c1")
"t"
>>> assignedlabel("CCOC(=O)C(=O)CC(=O)/C=C/c1cccn1Cc1cccc(Cl)c1")
"f"
>>> assignedlabel("O=C(/C=C/c1cccn1Cc1ccc(F)cc1)CC(=O)C(=O)O")
"t"
>>> assignedlabel("COc1ccc(Cn2cccc2/C=C/C(=O)CC(=O)C(=O)O)cc1")
"t"

Bench note: check whether CCOC(=O)C(=O)CC(=O)/C=C/c1cccn1Cc1c(F)cccc1F shows IC50 below 9 µM
f

Bench note: check whether CCOC(=O)C(=O)CC(=O)/C=C/c1cccn1Cc1c(Cl)cccc1Cl shows IC50 below 9 µM
f

Bench note: check whether O=C(/C=C/c1cccn1Cc1c(Cl)cccc1Cl)CC(=O)C(=O)O shows IC50 below 9 µM
f

###

# subjectOfTest: Human immunodeficiency virus type 1 reverse transcriptase (Human immunodeficiency virus 1, UniProt Q72547)
measurementName: IC50
Please append the unit to your numeric answer.

>>> readoutvalue("O=C(/C=C/c1cccn1Cc1cc(Cl)cc(Cl)c1)CC(=O)C(=O)O")
"30 µM"
>>> readoutvalue("CCOC(=O)C(=O)CC(=O)/C=C/c1cccn1Cc1ccc(C)cc1")
"7.3 µM"
>>> readoutvalue("O=C(/C=C/c1cccn1Cc1ccccc1F)CC(=O)C(=O)O")
"6.4 µM"
>>> readoutvalue("CCOC(=O)C(=O)CC(=O)/C=C/c1cccn1Cc1cccc(C)c1")
"9.6 µM"
>>> readoutvalue("CCOC(=O)C(=O)CC(=O)/C=C/c1cccn1Cc1cccc(F)c1F")
"8 µM"
>>> readoutvalue("CCOC(=O)C(=O)CC(=O)/C=C/c1cccn1Cc1ccc(C#N)cc1")
"8 µM"
>>> readoutvalue("O=C(/C=C/c1cccn1Cc1cccc(F)c1F)CC(=O)C(=O)O")
"6 µM"
>>> readoutvalue("Cc1ccccc1Cn1cccc1/C=C/C(=O)CC(=O)C(=O)O")
"26 µM"
>>> readoutvalue("O=C(/C=C/c1cccn1Cc1ccc(F)cc1F)CC(=O)C(=O)O")
"10 µM"
>>> readoutvalue("N#Cc1ccccc1Cn1cccc1/C=C/C(=O)CC(=O)C(=O)O")
"6 µM"

Give its IC50 value. Item: N#Cc1ccc(Cn2cccc2/C=C/C(=O)CC(=O)C(=O)O)cc1
6 µM

Give its IC50 value. Item: O=C(/C=C/c1cccn1Cc1c(F)cccc1F)CC(=O)C(=O)O
50 µM

###

Please consider the recorded IC50 for Human immunodeficiency virus type 1 integrase (Human immunodeficiency virus 1) in what follows.
Form entry: value (nM) — number only.

API: value(readout= IC50, system= Human immunodeficiency virus type 1 integrase (Human immunodeficiency virus 1), query= O=C(/C=C/c1cccn1Cc1c(F)cccc1F)CC(=O)C(=O)O )
150

###

Examples of compounds with documented pIC50 follow.
# subjectOfTest: Human immunodeficiency virus type 1 integrase (Human immunodeficiency virus 1, UniProt Q7ZJM1)
# Sequence (Q7ZJM1 whole entry): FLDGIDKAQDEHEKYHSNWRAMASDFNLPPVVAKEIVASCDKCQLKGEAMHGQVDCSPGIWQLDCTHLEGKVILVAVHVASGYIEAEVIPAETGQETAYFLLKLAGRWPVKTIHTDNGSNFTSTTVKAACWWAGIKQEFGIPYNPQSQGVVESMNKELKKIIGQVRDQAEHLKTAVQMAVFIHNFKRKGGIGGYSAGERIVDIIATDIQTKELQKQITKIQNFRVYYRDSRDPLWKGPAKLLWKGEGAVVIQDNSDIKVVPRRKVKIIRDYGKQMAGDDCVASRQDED
// scale note: pIC50 = -log10(conc_M); give the bare number

The following compounds have reported results that may help.
>>> readoutvalue("O=C(/C=C/c1cccn1Cc1ccc(F)cc1)CC(=O)C(=O)O")
7.59
>>> readoutvalue("CCOC(=O)C(=O)CC(=O)/C=C/c1cccn1Cc1cccc(F)c1")
4.96
>>> readoutvalue("CCOC(=O)C(=O)CC(=O)/C=C/c1cccn1Cc1cccc(F)c1F")
6.28
>>> readoutvalue("O=C(/C=C/c1cccn1Cc1cc(Cl)cc(Cl)c1)CC(=O)C(=O)O")
6.01
>>> readoutvalue("CCOC(=O)C(=O)CC(=O)/C=C/c1cccn1Cc1cc(C)cc(C)c1")
4.72
>>> readoutvalue("CCOC(=O)C(=O)CC(=O)/C=C/c1cccn1Cc1cccc(C#N)c1")
4.89
>>> readoutvalue("CCOC(=O)C(=O)CC(=O)/C=C/c1cccn1Cc1c(F)cccc1F")
5.40
>>> readoutvalue("CCOC(=O)C(=O)CC(=O)/C=C/c1cccn1Cc1ccccc1OC")
4.64
>>> readoutvalue("O=C(/C=C/c1cccn1Cc1ccccc1F)CC(=O)C(=O)O")
6.01
>>> readoutvalue("O=C(/C=C/c1cccn1Cc1c(Cl)cccc1Cl)CC(=O)C(=O)O")
6.77

Give its pIC50 value. Item: O=C(/C=C/c1cccn1Cc1ccc(F)c(F)c1)CC(=O)C(=O)O
5.80

Give its pIC50 value. Item: O=C(/C=C/c1cccn1Cc1cccc(Cl)c1)CC(=O)C(=O)O
6.51

Give its pIC50 value. Item: CCOC(=O)C(=O)CC(=O)/C=C/c1cccn1Cc1cccc(Cl)c1
5.22
